Experiment: chemical genetic growth profiling, strain panel (AID 1159580);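 also: tested at 20 µM; growth read once vehicle control cultures reached saturation at 30 °C; 1 = growth at the plate median or of vehicle wells; lower values mean less growth of the strain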
Details: S. cerevisiae deletion strains, growth OD, locus YLR342W, strain FKS1 (second series), stronger effect = lower value
Hit rate of the full screen: of about 5,500 compounds, about 2,000 (36%) were called active. Inconclusive results (about 18%) are left out. The list shows a part of the results.
Property Measured: normalized growth
Provide a numeric answer; units are not to be included.

Please review the entries below; each comes with its answer.
CN1CCN(CCC=C2c3ccccc3Sc3ccc(S(=O)(=O)N(C)C)cc32)CC1 ... 0.99
OCCN1CCN(CCCN2c3ccccc3Sc3ccc(C(F)(F)F)cc32)CC1 ... 0.723
CCN(CC)CCNC(=O)c1cc(Cl)c(N)cc1OC ... 0.995
O=C(O)c1cc(=O)c2cccc(O)c2[nH]1 ... 1.08

Consider the additional molecule presented here.
Prompt: Would you kindly share the measured normalized growth for CC(=O)O[C@@H]1CC[C@]2(C)C3CC[C@]4(C)C(=O)CCC4C3CC[C@H]2C1 (stereo not given in full) ?
Response: 0.804
